- MEASURED_TARGET: hCA I (Homo sapiens, UniProt P00915)
- Construct: made in house
- Sequence (P00915 whole entry): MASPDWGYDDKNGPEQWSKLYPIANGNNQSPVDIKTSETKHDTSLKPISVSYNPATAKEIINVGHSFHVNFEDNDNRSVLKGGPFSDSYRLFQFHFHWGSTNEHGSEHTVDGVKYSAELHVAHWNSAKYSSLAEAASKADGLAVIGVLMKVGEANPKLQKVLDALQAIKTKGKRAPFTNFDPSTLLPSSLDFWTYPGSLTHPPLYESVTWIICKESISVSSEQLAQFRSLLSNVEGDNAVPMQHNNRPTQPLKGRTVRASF
- PROCEDURE_DETAILS: stopped flow CO2 hydrase assay, hCA I
- Type: biochemical
- RUN_CONDITIONS: recombinant enzyme, 15 min incubation, mean from three assays, errors ± 5–10%
QUANTITY: Ki (nM)

> print(dat)
                               smiles.string  quantity  measure.unit  inequality.sign  reported.result
 1  CCOC(=O)c1ccc(-c2ccc3c(c2)OS(=O)(=O)N=C3)cc1        Ki            nM                =              356
 2               COc1ccc2c(c1)OS(=O)(=O)N=C2        Ki            nM                =              987
 3                  O=S1(=O)N=Cc2cccc(F)c2O1        Ki            nM                =              466
 4  O=S1(=O)N=Cc2cccc(-c3ccc(Cl)c(Cl)c3)c2O1        Ki            nM                =             6710
 5          O=S1(=O)N=Cc2ccc(-c3ccccc3)cc2O1        Ki            nM                =             5680
 6               COc1ccc2c(c1)C=NS(=O)(=O)O2        Ki            nM                >           100000
 7       O=S1(=O)N=Cc2ccc(-c3ccc(F)cc3)cc2O1        Ki            nM                =            15200
 8          O=S1(=O)N=Cc2c(cccc2-c2ccccc2)O1        Ki            nM                >           100000
 9                 O=S1(=O)N=Cc2cccc(Br)c2O1        Ki            nM                =              788
10  CCOC(=O)c1ccc(-c2cccc3c2C=NS(=O)(=O)O3)cc1        Ki            nM                >           100000
11      COc1ccc(-c2cccc3c2C=NS(=O)(=O)O3)cc1        Ki            nM                >           100000
12                Cc1ccc2c(c1)C=NS(=O)(=O)O2        Ki            nM                =            25700
13          O=S1(=O)N=Cc2cccc(-c3ccccc3)c2O1        Ki            nM                =              668
14                  O=S1(=O)N=Cc2ccc(F)cc2O1        Ki            nM                =              448
15                 O=S1(=O)N=Cc2cc(Br)ccc2O1        Ki            nM                >           100000
16       O=S1(=O)N=Cc2cccc(-c3ccc(F)cc3)c2O1        Ki            nM                =             1850
17                 O=S1(=O)N=Cc2ccc(Br)cc2O1        Ki            nM                =            46500
18    COc1ccc(-c2ccc3c(c2)OS(=O)(=O)N=C3)cc1        Ki            nM                =            30300
19                  O=S1(=O)N=Cc2cc(F)ccc2O1        Ki            nM                =             3320
20                Cc1ccc2c(c1)OS(=O)(=O)N=C2        Ki            nM                =              657
21       O=S1(=O)N=Cc2c(cccc2-c2ccc(F)cc2)O1        Ki            nM                >           100000
22  O=S1(=O)N=Cc2c(cccc2-c2ccc(Cl)c(Cl)c2)O1        Ki            nM                >           100000
23                 COc1cccc2c1OS(=O)(=O)N=C2        Ki            nM                =             1520
24      COc1ccc(-c2cccc3c2OS(=O)(=O)N=C3)cc1        Ki            nM                =             4260

* * *

Readings of melting point for the listed molecules
QUANTITY: melting point

> print(dat)
                                   molecule  reported.result
1  COc1ccc(-c2ccc3c(c2)OS(=O)(=O)N=C3)cc1 [5h]    181 to 182 °C
2  O=S1(=O)N=Cc2cccc(-c3ccc(F)cc3)c2O1 [5k]    123 to 124 °C
3  COc1ccc(-c2cccc3c2C=NS(=O)(=O)O3)cc1 [5c]    177 to 178 °C
4  O=S1(=O)N=Cc2cccc(-c3ccc(Cl)c(Cl)c3)c2O1 [5m]    165 to 166 °C
5  O=S1(=O)N=Cc2c(cccc2-c2ccc(Cl)c(Cl)c2)O1 [5d]    230 to 231 °C
6  CCOC(=O)c1ccc(-c2ccc3c(c2)OS(=O)(=O)N=C3)cc1 [5i]    204 to 205 °C
